system: Pseudomonas aeruginosa; test: Antimicrobial study against Pseudomonas aeruginosa (gram-negative bacteria); assay type: cell-based; details: Day 3; methylolated C8/10 10,800 ppm, methylolated lauric 11,400 ppm, DMDMH 3,000 ppm, others 14,700 ppm
# Colony Count values compiled below
PROPERTY LABEL: Colony Count

>>> print(df.to_string())
                                   compound         measured_target          result
0  CCCCCCCCCCCCCCCCCC(=O)OCCOC(=O)CCCCCCCCCCCCCCCCC [EGDS, ethylene glycol distearate, reference compound]  Pseudomonas aeruginosa   2,500 × 1,000
1  CCCCCCCCCCCC(=O)OCCN1C(=O)NC(=O)C1(C)C [Non-Methylolated Lauric Ester]  Pseudomonas aeruginosa     250 × 1,000
2  CCCCCCCCCCCCOS(=O)(=O)[O-].[Na+] [SLS, Sodium lauryl sulfate, reference compound]  Pseudomonas aeruginosa      30 × 1,000
3  CC1(C)C(=O)N(CO)C(=O)N1CO [DMDMH (iv), reference compound]  Pseudomonas aeruginosa  < 0.01 × 1,000
4  CCCCCCCC/C=C\CCCCCCCC(=O)OCCN1C(=O)N(CO)C(=O)C1(C)C [Methylolated Oleic Ester]  Pseudomonas aeruginosa  < 0.01 × 1,000
5  CCCCCCCCCCCC(=O)OCCN1C(=O)N(CO)C(=O)C1(C)C [Methylolated Lauric Ester]  Pseudomonas aeruginosa  < 0.01 × 1,000

====

system: Pseudomonas aeruginosa; test: Antimicrobial study against Pseudomonas aeruginosa (gram-negative bacteria); assay type: cell-based; details: Day 7; methylolated C8/10 10,800 ppm, methylolated lauric 11,400 ppm, DMDMH 3,000 ppm, others 14,700 ppm
PROPERTY LABEL: Colony Count

>>> df
                                   molecule          result
0  CCCCCCCC/C=C\CCCCCCCC(=O)OCCN1C(=O)N(CO)C(=O)C1(C)C [Methylolated Oleic Ester]  < 0.01 × 1,000
1  CCCCCCCCCCCCOS(=O)(=O)[O-].[Na+] [SLS, Sodium lauryl sulfate, reference compound]      50 × 1,000
2  CCCCCCCCCCCC(=O)OCCN1C(=O)NC(=O)C1(C)C [Non-Methylolated Lauric Ester]             TNC
3  CCCCCCCCCCCCCCCCCC(=O)OCCOC(=O)CCCCCCCCCCCCCCCCC [EGDS, ethylene glycol distearate, reference compound]             TNC
4  CCCCCCCCCCCC(=O)OCCN1C(=O)N(CO)C(=O)C1(C)C [Methylolated Lauric Ester]  < 0.01 × 1,000
5  CC1(C)C(=O)N(CO)C(=O)N1CO [DMDMH (iv), reference compound]  < 0.01 × 1,000

====

system: Pseudomonas aeruginosa; test: Antimicrobial study against Pseudomonas aeruginosa (gram-negative bacteria); format: cell-based; details: Day 0; methylolated C8/10 10,800 ppm, methylolated lauric 11,400 ppm, DMDMH 3,000 ppm, others 14,700 ppm
PROPERTY LABEL: Colony Count

                                   compound  property_label         result
0  CCCCCCCCCCCCOS(=O)(=O)[O-].[Na+] [SLS, Sodium lauryl sulfate, reference compound]    Colony Count  4,100 × 1,000
1  CC1(C)C(=O)N(CO)C(=O)N1CO [DMDMH (iv), reference compound]    Colony Count            TNC
2  CCCCCCCCCCCC(=O)OCCN1C(=O)N(CO)C(=O)C1(C)C    Colony Count            TNC
3  CCCCCCCCCCCCCCCCCC(=O)OCCOC(=O)CCCCCCCCCCCCCCCCC [EGDS, ethylene glycol distearate, reference compound]    Colony Count  3,000 × 1,000
4  CCCCCCCC/C=C\CCCCCCCC(=O)OCCN1C(=O)N(CO)C(=O)C1(C)C    Colony Count            TNC
5    CCCCCCCCCCCC(=O)OCCN1C(=O)NC(=O)C1(C)C    Colony Count            TNC
